# System: FMOC25_2 (patient-derived low-grade serous ovarian cancer cells)
# method: drug sensitivity score (DSS3, normalised partial AUC of % inhibition dose-response) (DSS (score)); higher = more sensitive (stronger inhibition of viability); extreme values may be limits of the assay
# measurement conditions: 72 h; library: FO5A; assay format: 2D, 384-well, CellTiter-Glo
rule met means recorded drug sensitivity score is 2 or above; rule not met means it is below 2.

-- ask Check if drug sensitivity score >= 2 (inclusive). Item: "CC[C@]1(O)C[C@H]2CN(CCc3c([nH]c4ccccc34)[C@@](C(=O)OC)(c3cc4c(cc3OC)N(C=O)[C@H]3[C@@](O)(C(=O)OC)[C@H](OC(C)=O)[C@]5(CC)C=CCN6CC[C@]43[C@@H]65)C2)C1"
-- reply rule met

-- ask Reported drug sensitivity score reaches at least 2 for "O=C(Nc1cccnc1)N1CCC(Cc2cccc(Oc3ccc(C(F)(F)F)cn3)c2)CC1" ?
-- reply rule not met

-- ask Is reported drug sensitivity score greater than or equal to 2 here: "CC(C)(O)CNc1nc(Nc2ccnc(C(F)(F)F)c2)nc(-c2cccc(C(F)(F)F)n2)n1"
-- reply rule not met

-- ask Answer whether drug sensitivity score of "COC(=O)c1ccc([C@H]2c3[nH]c4ccccc4c3C[C@H](C(=O)OC)N2C(=O)CCl)cc1" is greater than or equal to 2.
-- reply rule not met

-- ask drug sensitivity score >= 2 for "CN1CC[C@@H](NC(=O)Nc2ccc(C#N)cc2)C[C@@H]1c1nc2ccccc2[nH]1" ?
-- reply rule met

-- ask # check: drug sensitivity score of "COCCOc1cnc2ccn([C@H](C)c3nnc4c(F)cc(-c5cnn(C)c5)cn34)c(=O)c2c1" is greater than or equal to 2
-- reply rule not met

-- ask Textbook exercise: given the entry Nc1cccc2c1C(=O)N(C1CCC(=O)NC1=O)C2=O (centres undefined) [Pomalidomide] , state whether its drug sensitivity score is greater than or equal to 2.
-- reply rule not met

-- ask Entry "CCOC(=O)C1=CCCC[C@H]1S(=O)(=O)Nc1ccc(F)cc1Cl" : is its drug sensitivity score no less than 2?
-- reply rule not met

-- ask Could you please find out whether "CS(=O)(=O)N1CCN(Cc2cc3nc(-c4cccc5[nH]ncc45)nc(N4CCOCC4)c3s2)CC1" has drug sensitivity score that meets 2 or exceeds it?
-- reply rule met

-- ask In plain terms: is recorded drug sensitivity score at least 2 for "COc1nc(N)nc2c1ncn2[C@@H]1O[C@H](CO)[C@@H](O)[C@@H]1O" ?
-- reply rule not met

-- ask Evaluate "CO[C@H](C(=O)[C@@H](O)[C@@H](C)O)[C@@H]1Cc2cc3cc(O[C@H]4C[C@@H](O[C@@H]5C[C@@H](O)[C@H](O)[C@@H](C)O5)[C@H](O)[C@@H](C)O4)c(C)c(O)c3c(O)c2C(=O)[C@H]1O[C@H]1C[C@@H](O[C@@H]2C[C@@H](O)[C@@H](O[C@@H]3C[C@](C)(O)[C@H](O)[C@@H](C)O3)[C@@H](C)O2)[C@H](O)[C@@H](C)O1" : drug sensitivity score at minimum 2?
-- reply rule met

-- ask For this compound, is measured drug sensitivity score 2 or higher? "N#CC1(c2ccc(NC(=O)c3cccnc3NCc3ccncc3)cc2)CCCC1"
-- reply rule not met

-- ask Is drug sensitivity score for "O[C@H]1CC[C@H](Nc2ncc3nc(Nc4c(F)cc(F)cc4F)n([C@H]4CCOC4)c3n2)CC1" at or above 2?
-- reply rule not met

-- ask Please check the record "COc1cc2nccc(Oc3ccc(NC(=O)NC4CC4)c(Cl)c3)c2cc1C(N)=O" and state if its drug sensitivity score is at or above 2.
-- reply rule not met
